Tested on: GRIP2-3
test_summary: Holdup assay, GRIP2-3
Format: binding, human
*1 amine or outer side, *2 acyl side, *3 side chain or, on linkers, in order; H or OH if unused. Where a SMILES comes first, the peptide text is derived from it. The star is where a group is joined. X1 = O=C(CCCC[C@@H]1SC[C@@H]2NC(=O)N[C@@H]21)NCCCOCCOCCOCCCN*; Suc = O=C(CCC(=O)[*:2])[*:1]
# key: entry, value: BI
Just the number, please, no unit after it.

Example compounds with recorded BI:
CC[C@H](C)[C@H](NC(=O)[C@H](CCC(N)=O)NC(=O)[C@@H](NC(=O)[C@H](Cc1c[nH]cn1)NC(=O)[C@H](CCC(N)=O)NC(=O)[C@H](CC(=O)O)NC(=O)[C@H](CCC(=O)O)NC(=O)[C@H](CC(=O)O)NC(=O)CCC(=O)NCCCOCCOCCOCCCNC(=O)CCCC[C@@H]1SC[C@@H]2NC(=O)N[C@@H]21)[C@@H](C)O)C(=O)N[C@H](C(=O)N[C@@H](CCCCNC(C)=O)C(=O)N[C@H](C(=O)O)C(C)C)[C@@H](C)O    0.055
CC[C@H](C)[C@H](NC(=O)[C@H](CCC(N)=O)NC(=O)[C@@H](NC(=O)[C@H](Cc1c[nH]cn1)NC(=O)[C@H](CCC(N)=O)NC(=O)[C@H](CC(=O)O)NC(=O)[C@H](CCC(=O)O)NC(=O)[C@H](CC(=O)O)NC(=O)[C@H](Cc1ccccc1)NC(=O)[C@@H]1CCCN1C(=O)CCC(=O)NCCCOCCOCCOCCCNC(=O)CCCC[C@@H]1SC[C@@H]2NC(=O)N[C@@H]21)[C@@H](C)O)C(=O)N[C@H](C(=O)N[C@@H](CCCCN)C(=O)N[C@H](C(=O)O)C(C)C)[C@@H](C)O [PTEN_13] ({X1-Suc}-PFDEDQHTQITKV-OH)    0.027
CC[C@H](C)[C@H](NC(=O)[C@H](CCC(N)=O)NC(=O)[C@@H](NC(=O)[C@H](Cc1c[nH]cn1)NC(=O)[C@H](CCC(N)=O)NC(=O)[C@H](CC(=O)O)NC(=O)[C@H](CCC(=O)O)NC(=O)[C@H](CC(=O)O)NC(=O)CCC(=O)NCCCOCCOCCOCCCNC(=O)CCCC[C@@H]1SC[C@@H]2NC(=O)N[C@@H]21)[C@@H](C)O)C(=O)N[C@H](C(=O)N[C@@H](CCCCN)C(=O)N[C@H](C(=O)O)C(C)C)[C@@H](C)O    0.054

Prompt: Query (compound): CC[C@H](C)[C@H](NC(=O)[C@H](CCC(N)=O)NC(=O)[C@@H](NC(=O)[C@H](Cc1c[nH]cn1)NC(=O)[C@H](CCC(N)=O)NC(=O)[C@H](CC(=O)O)NC(=O)[C@H](CCC(=O)O)NC(=O)[C@H](CC(=O)O)NC(=O)CCC(=O)NCCCOCCOCCOCCCNC(=O)CCCC[C@@H]1SC[C@@H]2NC(=O)N[C@@H]21)[C@@H](C)O)C(=O)N[C@H](C(=O)N[C@@H](CCCNC(=N)N)C(=O)N[C@H](C(=O)O)C(C)C)[C@@H](C)O [PTEN_KR] ({X1-Suc}-DEDQHTQITRV-OH) ; field requested: BI
Completion: 0.027

---

Tested on: 266 human PDZ domains (PDZome)
test_summary: Holdup assay (chromatographic retention, PDZome-binding profile, BI)
Design: key: binding intensity: 0.00 = no binding, 1.00 = maximal binding
applied_conditions: PDZ domain NHERF3-2
*1 amine or outer side, *2 acyl side, *3 side chain or, on linkers, in order; H or OH if unused. Where a SMILES comes first, the peptide text is derived from it. The star is where a group is joined. X1 = O=C(CCCC[C@@H]1SC[C@@H]2NC(=O)N[C@@H]21)NCCCOCCOCCOCCCN*; Suc = O=C(CCC(=O)[*:2])[*:1]
test_readout: BI

Prompt: Query (compound): CC[C@H](C)[C@H](NC(=O)[C@H](CCC(N)=O)NC(=O)[C@@H](NC(=O)[C@H](Cc1c[nH]cn1)NC(=O)[C@H](CCC(N)=O)NC(=O)[C@H](CC(=O)O)NC(=O)[C@H](CCC(=O)O)NC(=O)[C@H](CC(=O)O)NC(=O)CCC(=O)NCCCOCCOCCOCCCNC(=O)CCCC[C@@H]1SC[C@@H]2NC(=O)N[C@@H]21)[C@@H](C)O)C(=O)N[C@H](C(=O)N[C@@H](CCCNC(=N)N)C(=O)N[C@H](C(=O)O)C(C)C)[C@@H](C)O [PTEN_KR] ({X1-Suc}-DEDQHTQITRV-OH) ; field requested: BI
Completion: 0.002

---

Here's a batch of compounds along with measured Kd for MAGI1-5 (Homo sapiens).
*1 amine or outer side, *2 acyl side, *3 side chain or, on linkers, in order; H or OH if unused. Where a SMILES comes first, the peptide text is derived from it. The star is where a group is joined. X1 = O=C(CCCC[C@@H]1SC[C@@H]2NC(=O)N[C@@H]21)NCCCOCCOCCOCCCN*; Suc = O=C(CCC(=O)[*:2])[*:1]
The reply should consist of the numeric value with the unit placed after it.

Example compounds with recorded Kd:
CC[C@H](C)[C@H](NC(=O)[C@H](CCC(N)=O)NC(=O)[C@@H](NC(=O)[C@H](Cc1c[nH]cn1)NC(=O)[C@H](CCC(N)=O)NC(=O)[C@H](CC(=O)O)NC(=O)[C@H](CCC(=O)O)NC(=O)[C@H](CC(=O)O)NC(=O)[C@H](Cc1ccccc1)NC(=O)[C@@H]1CCCN1C(=O)CCC(=O)NCCCOCCOCCOCCCNC(=O)CCCC[C@@H]1SC[C@@H]2NC(=O)N[C@@H]21)[C@@H](C)O)C(=O)N[C@H](C(=O)N[C@@H](CCCCN)C(=O)N[C@H](C(=O)O)C(C)C)[C@@H](C)O [PTEN_13] ({X1-Suc}-PFDEDQHTQITKV-OH)    42.1 µM
CC[C@H](C)[C@H](NC(=O)[C@H](CCC(N)=O)NC(=O)[C@@H](NC(=O)[C@H](Cc1c[nH]cn1)NC(=O)[C@H](CCC(N)=O)NC(=O)[C@H](CC(=O)O)NC(=O)[C@H](CCC(=O)O)NC(=O)[C@H](CC(=O)O)NC(=O)CCC(=O)NCCCOCCOCCOCCCNC(=O)CCCC[C@@H]1SC[C@@H]2NC(=O)N[C@@H]21)[C@@H](C)O)C(=O)N[C@H](C(=O)N[C@@H](CCCCN)C(=O)N[C@H](C(=O)O)C(C)C)[C@@H](C)O    27.6 µM
CC[C@H](C)[C@H](NC(=O)[C@H](CCC(N)=O)NC(=O)[C@@H](NC(=O)[C@H](Cc1c[nH]cn1)NC(=O)[C@H](CCC(N)=O)NC(=O)[C@H](CC(=O)O)NC(=O)[C@H](CCC(=O)O)NC(=O)[C@H](CC(=O)O)NC(=O)CCC(=O)NCCCOCCOCCOCCCNC(=O)CCCC[C@@H]1SC[C@@H]2NC(=O)N[C@@H]21)[C@@H](C)O)C(=O)N[C@H](C(=O)N[C@@H](CCCCNC(C)=O)C(=O)N[C@H](C(=O)O)C(C)C)[C@@H](C)O    13.9 µM

Prompt: Query (compound): CC[C@H](C)[C@H](NC(=O)[C@H](CCC(N)=O)NC(=O)[C@@H](NC(=O)[C@H](Cc1c[nH]cn1)NC(=O)[C@H](CCC(N)=O)NC(=O)[C@H](CC(=O)O)NC(=O)[C@H](CCC(=O)O)NC(=O)[C@H](CC(=O)O)NC(=O)CCC(=O)NCCCOCCOCCOCCCNC(=O)CCCC[C@@H]1SC[C@@H]2NC(=O)N[C@@H]21)[C@@H](C)O)C(=O)N[C@H](C(=O)N[C@@H](CCCNC(=N)N)C(=O)N[C@H](C(=O)O)C(C)C)[C@@H](C)O [PTEN_KR] ({X1-Suc}-DEDQHTQITRV-OH) ; field requested: Kd
Completion: 13.9 µM

---

target_system: MAGI3-5 (Homo sapiens)
Sequence (Q5TCQ9 1-1481): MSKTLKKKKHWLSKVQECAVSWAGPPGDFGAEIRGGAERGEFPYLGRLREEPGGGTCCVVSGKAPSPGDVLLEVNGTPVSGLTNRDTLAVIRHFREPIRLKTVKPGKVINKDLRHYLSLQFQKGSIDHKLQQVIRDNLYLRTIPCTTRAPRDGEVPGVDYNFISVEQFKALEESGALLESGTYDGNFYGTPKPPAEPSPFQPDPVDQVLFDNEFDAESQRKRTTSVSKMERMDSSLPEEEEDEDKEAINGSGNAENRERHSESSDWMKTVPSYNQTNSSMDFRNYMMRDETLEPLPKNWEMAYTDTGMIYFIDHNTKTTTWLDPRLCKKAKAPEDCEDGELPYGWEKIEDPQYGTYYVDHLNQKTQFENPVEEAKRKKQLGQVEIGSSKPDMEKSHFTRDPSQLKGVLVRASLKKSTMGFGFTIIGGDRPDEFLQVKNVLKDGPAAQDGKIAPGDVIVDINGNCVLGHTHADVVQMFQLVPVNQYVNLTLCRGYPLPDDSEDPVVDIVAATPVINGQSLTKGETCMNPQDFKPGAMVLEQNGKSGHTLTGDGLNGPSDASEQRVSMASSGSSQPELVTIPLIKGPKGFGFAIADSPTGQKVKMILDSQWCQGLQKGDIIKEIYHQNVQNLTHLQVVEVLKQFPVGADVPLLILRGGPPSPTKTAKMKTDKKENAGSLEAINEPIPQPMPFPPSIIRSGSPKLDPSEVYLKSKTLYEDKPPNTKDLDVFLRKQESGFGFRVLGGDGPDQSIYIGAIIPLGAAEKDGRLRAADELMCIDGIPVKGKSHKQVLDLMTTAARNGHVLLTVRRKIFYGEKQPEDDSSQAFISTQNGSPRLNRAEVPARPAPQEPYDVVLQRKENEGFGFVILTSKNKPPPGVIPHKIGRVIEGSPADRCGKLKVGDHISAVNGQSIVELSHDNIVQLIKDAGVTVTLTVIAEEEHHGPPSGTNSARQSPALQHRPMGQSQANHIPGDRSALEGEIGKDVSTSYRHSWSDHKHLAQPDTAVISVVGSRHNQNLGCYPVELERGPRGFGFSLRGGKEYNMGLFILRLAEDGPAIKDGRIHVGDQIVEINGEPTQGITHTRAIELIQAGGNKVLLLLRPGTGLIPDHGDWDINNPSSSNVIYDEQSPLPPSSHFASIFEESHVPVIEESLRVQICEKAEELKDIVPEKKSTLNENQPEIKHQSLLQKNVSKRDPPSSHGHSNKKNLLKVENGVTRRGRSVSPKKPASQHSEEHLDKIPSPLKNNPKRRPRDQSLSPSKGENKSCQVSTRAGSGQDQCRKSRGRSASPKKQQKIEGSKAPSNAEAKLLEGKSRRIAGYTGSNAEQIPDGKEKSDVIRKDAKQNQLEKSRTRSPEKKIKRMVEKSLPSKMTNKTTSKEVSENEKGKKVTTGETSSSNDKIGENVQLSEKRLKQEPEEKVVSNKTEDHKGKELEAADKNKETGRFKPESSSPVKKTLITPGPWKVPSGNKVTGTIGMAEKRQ
test_summary: Holdup assay, MAGI3-5
Format: binding
*1 amine or outer side, *2 acyl side, *3 side chain or, on linkers, in order; H or OH if unused. Where a SMILES comes first, the peptide text is derived from it. The star is where a group is joined. X1 = O=C(CCCC[C@@H]1SC[C@@H]2NC(=O)N[C@@H]21)NCCCOCCOCCOCCCN*; Suc = O=C(CCC(=O)[*:2])[*:1]
test_readout: BI
Just the number, please, no unit after it.

Prompt: Query (compound): CC[C@H](C)[C@H](NC(=O)[C@H](CCC(N)=O)NC(=O)[C@@H](NC(=O)[C@H](Cc1c[nH]cn1)NC(=O)[C@H](CCC(N)=O)NC(=O)[C@H](CC(=O)O)NC(=O)[C@H](CCC(=O)O)NC(=O)[C@H](CC(=O)O)NC(=O)CCC(=O)NCCCOCCOCCOCCCNC(=O)CCCC[C@@H]1SC[C@@H]2NC(=O)N[C@@H]21)[C@@H](C)O)C(=O)N[C@H](C(=O)N[C@@H](CCCNC(=N)N)C(=O)N[C@H](C(=O)O)C(C)C)[C@@H](C)O [PTEN_KR] ({X1-Suc}-DEDQHTQITRV-OH) ; field requested: BI
Completion: 0.165
